Tested on: Enterococcus faecalis
Assay: Antibacterial activity against vancomycin-resistant Enterococcus faecalis ATCC 51299 after 8 to 12 hrs by colorimetric microdilution broth technique
Assay type: functional
Documented log10 MIC across a set of molecules
// do not treat as linear: log10 of MIC, unit µg/mL

Example results:
>  <molecular.string>
CN(C)c1ccc(/C=C/c2cccc[n+]2C)cc1.Cc1ccc(S(=O)(=O)[O-])cc1

>  <assay.target>
Enterococcus faecalis

>  <log10 MIC>
2.48

$$$$
>  <molecular.string>
CCOc1ccc(/C=C/c2ccc3ccccc3[n+]2C)cc1.Nc1ccc(S(=O)(=O)[O-])cc1

>  <assay.target>
Enterococcus faecalis

>  <log10 MIC>
1.88

$$$$
>  <molecular.string>
CN(C)c1ccc(/C=C/c2cccc[n+]2C)cc1.O=S(=O)([O-])c1ccc(Cl)cc1

>  <assay.target>
Enterococcus faecalis

>  <log10 MIC>
2.18

$$$$
>  <molecular.string>
CCOc1ccc(/C=C/c2ccc3ccccc3[n+]2C)cc1.[I-]

>  <assay.target>
Enterococcus faecalis

>  <log10 MIC>
1.57

$$$$
>  <molecular.string>
CCOc1ccc(/C=C/c2ccc3ccccc3[n+]2C)cc1.COc1ccc(S(=O)(=O)[O-])cc1

>  <assay.target>
Enterococcus faecalis

>  <log10 MIC>
1.27

$$$$
>  <molecular.string>
CN(C)c1ccc(/C=C/c2cccc[n+]2C)cc1.COc1ccc(S(=O)(=O)[O-])cc1

>  <assay.target>
Enterococcus faecalis

>  <log10 MIC>
2.18

$$$$
>  <molecular.string>
CN(C)c1ccc(/C=C/c2ccc3ccccc3[n+]2C)cc1.O=S(=O)([O-])c1ccc(Br)cc1

>  <assay.target>
Enterococcus faecalis

>  <log10 MIC>
0.37

$$$$
>  <molecular.string>
CN(C)c1ccc(/C=C/c2ccc3ccccc3[n+]2C)cc1.COc1ccc(S(=O)(=O)[O-])cc1

>  <assay.target>
Enterococcus faecalis

>  <log10 MIC>
2.18

$$$$

stdin: Give its log10 MIC value. Item: "CN(C)c1ccc(/C=C/c2ccc3ccccc3[n+]2C)cc1.Nc1ccc(S(=O)(=O)[O-])cc1"
stdout: 1.27

stdin: Give its log10 MIC value. Item: "CCOc1ccc(/C=C/c2ccc3ccccc3[n+]2C)cc1.O=S(=O)([O-])c1ccc(Cl)cc1"
stdout: 2.18

stdin: Give its log10 MIC value. Item: "CN(C)c1ccc(C=Cc2cccc[n+]2C)cc1.[I-]"
stdout: 2.48

stdin: Give its log10 MIC value. Item: "CCOc1ccc(/C=C/c2ccc3ccccc3[n+]2C)cc1.Cc1ccc(S(=O)(=O)[O-])cc1"
stdout: 1.57

stdin: Give its log10 MIC value. Item: "CN(C)c1ccc(/C=C/c2cccc[n+]2C)cc1.Nc1ccc(S(=O)(=O)[O-])cc1"
stdout: 2.48

// provenance: ChEMBL document CHEMBL1240464
